molecular target: Nocturnin (NOCT) (Homo sapiens, UniProt Q9UK39, H414N); assay: NADPH intrinsic fluorescence titration
Sequence (Q9UK39 122-431 H414N): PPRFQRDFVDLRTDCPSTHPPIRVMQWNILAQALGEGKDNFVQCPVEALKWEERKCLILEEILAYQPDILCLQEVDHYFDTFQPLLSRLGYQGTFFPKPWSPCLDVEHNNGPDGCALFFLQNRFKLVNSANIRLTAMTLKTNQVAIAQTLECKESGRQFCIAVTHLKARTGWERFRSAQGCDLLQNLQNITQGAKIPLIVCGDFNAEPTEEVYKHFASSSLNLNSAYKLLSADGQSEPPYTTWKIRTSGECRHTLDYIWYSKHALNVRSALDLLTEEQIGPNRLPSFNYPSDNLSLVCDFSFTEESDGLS
measurement_kind: Kd (µM)
I only need the number, in µM, no unit after it.

Please give the measured Kd for this compound: NC(=O)C1=CN([C@@H]2O[C@H](COP(=O)(O)OP(=O)(O)OC[C@H]3O[C@@H](n4cnc5c(N)ncnc54)[C@H](OP(=O)(O)O)[C@@H]3O)[C@@H](O)[C@H]2O)C=CC1 [NADPH]
338

###

target: Nocturnin (NOCT) (Homo sapiens, UniProt Q9UK39, H286N); assay: NADPH intrinsic fluorescence titration
Sequence (Q9UK39 122-431 H286N): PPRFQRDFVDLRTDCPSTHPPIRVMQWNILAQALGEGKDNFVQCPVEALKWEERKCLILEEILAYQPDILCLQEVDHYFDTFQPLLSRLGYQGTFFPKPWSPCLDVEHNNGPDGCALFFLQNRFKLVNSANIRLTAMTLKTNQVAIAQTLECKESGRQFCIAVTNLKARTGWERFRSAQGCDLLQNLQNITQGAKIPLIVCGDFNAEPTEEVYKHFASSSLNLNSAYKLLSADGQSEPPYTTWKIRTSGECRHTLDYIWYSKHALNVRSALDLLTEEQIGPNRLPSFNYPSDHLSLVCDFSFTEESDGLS
measurement_kind: Kd (µM)
I only need the number, in µM, no unit after it.

Please give the measured Kd for this molecule: NC(=O)C1=CN([C@@H]2O[C@H](COP(=O)(O)OP(=O)(O)OC[C@H]3O[C@@H](n4cnc5c(N)ncnc54)[C@H](OP(=O)(O)O)[C@@H]3O)[C@@H](O)[C@H]2O)C=CC1
219
